target: UniProt P48729; assay: In vitro kinase assay of RXR immunoprecipitated complexes with inhibitor in the assay mixture; conditions: RXR immunoprecipitated complexes from Compound 1-treated HEK293 Flag-RXR cells; read-out: IC50 for inhibition of phosphorylation of RXR and p160
Sequence (P48729 whole entry): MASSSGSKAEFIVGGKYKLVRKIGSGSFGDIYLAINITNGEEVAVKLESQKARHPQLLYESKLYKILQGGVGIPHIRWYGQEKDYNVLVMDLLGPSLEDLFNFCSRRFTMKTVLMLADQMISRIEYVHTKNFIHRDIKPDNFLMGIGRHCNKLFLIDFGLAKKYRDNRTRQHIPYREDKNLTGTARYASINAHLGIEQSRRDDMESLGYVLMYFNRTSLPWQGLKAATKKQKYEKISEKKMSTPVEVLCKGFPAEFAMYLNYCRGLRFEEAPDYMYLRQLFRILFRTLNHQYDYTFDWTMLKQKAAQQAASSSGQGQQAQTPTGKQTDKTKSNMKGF
Sequence (P19793 whole entry partner): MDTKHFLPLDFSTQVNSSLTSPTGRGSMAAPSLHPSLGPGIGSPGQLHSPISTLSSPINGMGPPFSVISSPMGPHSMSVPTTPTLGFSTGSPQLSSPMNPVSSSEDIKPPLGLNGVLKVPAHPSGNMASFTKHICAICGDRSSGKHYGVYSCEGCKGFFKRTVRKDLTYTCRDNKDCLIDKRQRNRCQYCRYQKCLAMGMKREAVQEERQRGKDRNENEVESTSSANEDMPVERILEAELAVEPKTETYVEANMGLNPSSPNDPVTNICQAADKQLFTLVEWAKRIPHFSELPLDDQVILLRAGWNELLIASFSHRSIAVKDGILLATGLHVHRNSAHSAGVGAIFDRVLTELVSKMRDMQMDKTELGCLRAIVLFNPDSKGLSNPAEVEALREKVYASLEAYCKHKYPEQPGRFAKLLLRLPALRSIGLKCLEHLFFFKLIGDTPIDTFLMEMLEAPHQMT
pIC50: −log10 of the molar value.
metric: pIC50

## Task Lab note: need pIC50 for `NCCNS(=O)(=O)c1ccc(Cl)c2ccncc12` on UniProt P48729, anyone have it?
## Result ~4.52
